assay: Toxicity liver stage against HepG2, at 10uM; format: cell-based; design: test concentration 10 uM, cell line HepG2-A16-CD81EGFP; settings: human, HepG2-A16-CD81EGFP cells; read-out: INHIBITION
readoutType: cytotoxicity at 10 µM (%)

>>> print(df.to_string())
                                    compound  unitspec     val
 0   CC(C)N1CCO[C@H]2CN(Cc3cc[nH]n3)C[C@H]21         %    -108
 1  O=C1NCCN(C(=O)CN2CCOC2=O)C1c1cccc(F)c1 (configuration not stated)         %    8.91
 2  Cc1n[nH]c2nc(-c3cccc(Cl)c3)cc(C(=O)O)c12         %   -1.05
 3               CCn1ncc(Cn2cc(Cl)c(N)n2)c1C         %   -8.55
 4  Cc1cnn(CC2CN(c3ncnc4[nH]ccc34)CCO2)c1 (configuration not stated)         %   -1.91
 5        CC(=O)N1CCCN(C(=O)NCCNc2ccccn2)CC1         %   -4.07
 6  CN(C)Cc1ccnc(C2CCCN2Cc2cccc(F)c2F)n1 (configuration not stated)         %    2.22
 7  O=C(c1ccc2cc[nH]c2c1)N1CCCN(Cc2cscn2)CC1         %   -31.7
 8  Cc1cc(C(=O)N2CCOC(c3nc(C(C)C)n[nH]3)C2)c(C)s1 (configuration not stated)         %   -5.72
 9  CS(=O)(=O)N1CCC(C(=O)NC(Cc2ccsc2)c2ccccn2)CC1 (configuration not stated)         %   -2.91
10  O=C(O)c1csc(S(=O)(=O)N2CCCc3cc(OC(F)F)ccc32)c1         %   -9.69
11      Cc1ccc(CNCc2ccc(-n3nc(C)cc3C)nc2)cc1         %  -0.164
12      CC(C)OCCS(=O)(=O)N1CCN(Cc2cccn2C)CC1         %   -17.3
13     CN1CCN(Cc2ccccc2Oc2cncc(C(N)=O)n2)CC1         %   -4.89
14  CC(Cc1cccc(F)c1)NCc1cnc(N2CCN(C)CC2)nc1 (configuration not stated)         %   -5.44
15           O=C(Nc1ccc(CCN2CCOCC2)cc1)C1CC1         %   -10.9
16  O=C1CC(c2cccs2)c2snc(C(=O)O)c2N1 (configuration not stated)         %   -11.1
17       CCN(CC(=O)NC(C)C)S(=O)(=O)N1CCCCCC1         %    2.37
18     CCCn1ncc(C(=O)NCc2n[nH]c3c2CCCCC3)c1C         %    8.72
19          O=C(c1cccc(OCc2cscn2)c1)N1CCOCC1         %   -6.13
20    CCOc1ccc(S(=O)(=O)N(CCOC)Cc2ccoc2)cc1F         %    8.31
21  CN(CC1(O)CCCN(Cc2cccc(F)c2F)C1=O)C1CCCCC1 (configuration not stated)         %   -11.1
22  CCC(NC(=O)C1CCN(S(C)(=O)=O)CC1)c1ccc(OC)c(OC)c1 (configuration not stated)         %   -6.69
23  CCN(CC)C(=O)Cn1c(C)cc2nc(SC)n(CC(C)C)c(=O)c21         %   -12.8
24  CS(=O)(=O)c1cc(C(=O)NS(=O)(=O)Cc2ccc(F)cc2)ccc1Cl         %   -3.38
25  COCCN1C[C@H]2CCN(c3ncccn3)CC[C@H]2S1(=O)=O         %    -2.2
26   CNC(=O)c1ccc(=O)n(Cc2csc(C(C)(C)C)n2)c1         %     6.8
27  Fc1cccc(-c2nc(CN3CCCC3Cn3cncn3)co2)c1 (configuration not stated)         %   -5.61
28  O=C(c1cnccn1)N1CCOC2(CCCN(c3ncccc3F)C2)C1 (configuration not stated)         %   0.199
29  COc1cccc(CN(C)C(=O)CN2CC(n3nc(C)cc3C)C2)c1         %   -1.38
30  CCOCC1COCCC12CCN(C(=O)CS(C)(=O)=O)CC2 (configuration not stated)         %   -1.99
31  COCCNC(=O)C(C)n1nc(-c2ccc(C)o2)cc(N)c1=O (configuration not stated)         %    1.26
32  Cn1ccc(C(=O)NC2CCC23CCN(C(=O)N2CCCC2)CC3)c1 (configuration not stated)         %    2.01
33   Cc1cc(N2CCN(C(=O)CCc3scnc3C)CC2)cc(C)n1         %   -48.4
34  O=C(c1ccncc1)N1CC[C@@H]2[C@@H](CC1)OCCN2c1cccnc1         %    8.25
35  CCNC(=O)[C@@H]1C[C@H](N)CN1Cc1ccc2cccc(Cl)c2n1         %    5.91
36         COCCc1noc(CN(C)c2nc(C)nc(C)c2C)n1         %    4.24
37  COc1ccc(CN2C[C@@H](F)[C@@H](OCc3nc4ccccc4[nH]3)C2)cn1         %   -2.59
38  c1ccc(OCc2ccncc2)c(CNC2CCc3ncnn3C2)c1 (configuration not stated)         %   -2.35
39     CN(C)c1ncc2c(c1C(=O)O)CCN(Cc1ccco1)C2         %    3.57
40  Cc1c(C(=O)NCC(C)(C)S(C)(=O)=O)cccc1-c1ccccn1         %    2.07
41       COc1cc(CCC(=O)NC(C)C)ccc1OCC(F)(F)F         %   -4.24
42  O=C1CCC2(CCCN(C(=O)c3cccs3)C2)N1 (configuration not stated)         %    6.88
43  C[C@@H](NC(=O)c1cccs1)c1onc(-c2cccnc2)c1C(=O)O         %    6.09
44   CC(=O)Nc1nc(C2CCN(C(=O)c3cccnc3)CC2)cs1         %   -2.47
45  Cc1cccc(C(=O)NC2CCN(c3cnn(C)c3)C2=O)n1 (configuration not stated)         %    3.48
46  Cn1cc(N2CC3(CCN(S(C)(=O)=O)C3)CC2=O)cn1 (configuration not stated)         %    9.04

###

assay: Toxicity liver stage against HepG2, at 10uM; type: cell-based; parameters: test concentration 10 uM, cell line HepG2-A16-CD81EGFP; conditions: human, HepG2-A16-CD81EGFP cells; read-out: INHIBITION
readoutType: cytotoxicity at 10 µM

>>> print(df.to_string())
                                    compound            readouttype     val
 0  Cc1noc(C)c1CN1CC[C@H]2OCC[C@@]2(C(=O)N2CCCO2)C1  cytotoxicity at 10 µM   1.59%
 1  COc1ccccc1[C@@H]1CN(Cc2cc(C(C)(C)C)[nH]n2)C[C@H]1C(=O)O  cytotoxicity at 10 µM   18.4%
 2      O=C(Cc1ccsc1)N1CCC(Cn2cc(CCO)nn2)CC1  cytotoxicity at 10 µM   1.67%
 3  COc1ccc(S(=O)(=O)N2CCC(OCc3ccccn3)C2)cc1Br (centres undefined)  cytotoxicity at 10 µM   2.24%
 4  O=C(c1ccncc1)N1CCCC1c1cccc(Br)c1 (centres undefined)  cytotoxicity at 10 µM   16.9%
 5  CO[C@@H]1CC[C@H]2[C@H]1OCCN2C(=O)C1=CCCC1  cytotoxicity at 10 µM  -6.34%
 6          O=C(CCc1nnc2ccccn2c1=O)NCc1ccco1  cytotoxicity at 10 µM  -7.51%
 7  O=C1NC2(CCNCC2)CC1c1ccccc1 (centres undefined)  cytotoxicity at 10 µM  -72.7%
 8        COc1ccc(Cl)cc1CCNC(=O)NCc1noc(C)n1  cytotoxicity at 10 µM  -4.76%
 9        Cn1cc(NC(=O)Nc2cccc3cccnc23)ccc1=O  cytotoxicity at 10 µM  -9.22%
10  CCN(CC)C(CNCc1cc(F)cc(F)c1)c1ccco1 (centres undefined)  cytotoxicity at 10 µM   5.44%
11    COc1cc(CN(C(=O)Nc2cccnc2OC)C2CC2)ccc1O  cytotoxicity at 10 µM  -2.14%
12  CCn1ccnc1CN1CCN(C(C)C(=O)NCC(F)(F)F)CC1 (centres undefined)  cytotoxicity at 10 µM   9.73%
13        CC(C)OCc1ncn2c1CN(Cc1cnn(C)c1)CCC2  cytotoxicity at 10 µM   6.13%
14  CS(=O)(=O)NC1CCCN(C(=O)NCc2cccc(F)c2)C1 (centres undefined)  cytotoxicity at 10 µM  -18.8%
15  NC(=O)c1ccc(N2CCCCC2)c(NC(=O)c2cc(Br)ccc2Cl)c1  cytotoxicity at 10 µM   59.6%
16            CCC(=O)NC1CCN(c2cccc(CC)c2)CC1  cytotoxicity at 10 µM  -4.16%
17              Cc1noc2ncnc(N(C)Cc3ccco3)c12  cytotoxicity at 10 µM   2.57%
18  Cc1cc2c(=O)n3c(nc2s1)CCN(C(=O)c1cnn(C)c1C)CC3  cytotoxicity at 10 µM  0.359%
19      CCOCCS(=O)(=O)Cc1ccn(-c2cccc(F)c2)n1  cytotoxicity at 10 µM   4.48%
20       c1ccc(OCc2noc3c2CN(c2ncccn2)CC3)nc1  cytotoxicity at 10 µM  -3.25%
21  Cc1cnn(CCCNC(=O)NCCS(=O)(=O)Nc2ccccc2)c1  cytotoxicity at 10 µM   1.07%
22  CC(C)Cc1nc(CN2CCOC(Cn3cccn3)C2)no1 (centres undefined)  cytotoxicity at 10 µM  -28.9%
23  Cc1ccc(-c2ccnc(N3CCC4(CCO4)CC3)n2)c(C)n1  cytotoxicity at 10 µM   2.05%
